Target: α3β3γ2 GABAA receptor (Homo sapiens, UniProt P18507+P34903)
Construct: Full-length cDNAs for GABAA receptor subtypes are transfected into the human embryonic kidney cell line HEK-293T
Sequence (P34903 29-492): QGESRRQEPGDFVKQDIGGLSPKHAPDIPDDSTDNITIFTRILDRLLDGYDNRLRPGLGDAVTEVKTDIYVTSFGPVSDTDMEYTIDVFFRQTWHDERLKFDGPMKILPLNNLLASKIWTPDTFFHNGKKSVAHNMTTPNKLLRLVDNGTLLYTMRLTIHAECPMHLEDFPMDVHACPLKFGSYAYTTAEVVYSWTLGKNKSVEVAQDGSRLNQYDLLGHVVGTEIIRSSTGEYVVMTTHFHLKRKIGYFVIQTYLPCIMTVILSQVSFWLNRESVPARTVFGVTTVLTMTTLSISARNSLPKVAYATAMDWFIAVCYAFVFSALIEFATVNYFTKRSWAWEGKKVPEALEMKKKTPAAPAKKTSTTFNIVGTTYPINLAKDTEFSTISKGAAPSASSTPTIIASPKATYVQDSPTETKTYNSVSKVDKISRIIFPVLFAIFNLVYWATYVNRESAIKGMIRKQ
Sequence (P28472 26-473 partner): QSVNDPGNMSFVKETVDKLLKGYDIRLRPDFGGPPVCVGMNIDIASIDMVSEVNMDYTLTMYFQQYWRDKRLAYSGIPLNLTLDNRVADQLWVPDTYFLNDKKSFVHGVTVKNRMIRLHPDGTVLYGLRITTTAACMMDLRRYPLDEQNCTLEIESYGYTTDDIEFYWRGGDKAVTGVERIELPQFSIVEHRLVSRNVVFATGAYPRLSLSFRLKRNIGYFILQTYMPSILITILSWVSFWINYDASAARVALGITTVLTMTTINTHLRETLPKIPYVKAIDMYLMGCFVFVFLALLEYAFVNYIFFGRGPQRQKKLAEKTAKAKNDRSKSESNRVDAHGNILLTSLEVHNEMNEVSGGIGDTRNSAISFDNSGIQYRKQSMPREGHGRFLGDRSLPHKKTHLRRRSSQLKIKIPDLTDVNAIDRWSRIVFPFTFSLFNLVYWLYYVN
Sequence (P18507 40-475): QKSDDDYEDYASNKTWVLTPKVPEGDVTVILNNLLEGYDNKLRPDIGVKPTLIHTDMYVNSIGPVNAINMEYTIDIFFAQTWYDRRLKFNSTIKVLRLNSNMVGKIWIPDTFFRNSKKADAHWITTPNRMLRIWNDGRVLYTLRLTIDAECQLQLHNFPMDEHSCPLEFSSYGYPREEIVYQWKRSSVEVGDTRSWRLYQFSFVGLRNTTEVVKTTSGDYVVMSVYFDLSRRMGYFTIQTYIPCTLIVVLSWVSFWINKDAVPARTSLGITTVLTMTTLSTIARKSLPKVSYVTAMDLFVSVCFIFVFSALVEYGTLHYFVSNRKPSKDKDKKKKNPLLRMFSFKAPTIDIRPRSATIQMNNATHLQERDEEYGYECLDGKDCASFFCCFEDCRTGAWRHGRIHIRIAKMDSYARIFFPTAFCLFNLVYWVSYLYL
Assay: Electrophysiology in transfected cells (IonWorks Barracuda), PAM effect on current induced by 5 μM GABA
MEASURE NAME: EC50 (µM)
Write the answer as a number in µM, unit excluded.

Just so you know, measured EC50 for CCNC(=O)c1ncn2c1[C@@H](C)N=C(c1ccccc1F)c1cc(C3CC3)ccc1-2 came out at 3.52

====

Target: α2β3γ2 GABAA receptor (Homo sapiens, UniProt P18507+P47869)
Construct: Full-length cDNAs for GABAA receptor subtypes are transfected into the human embryonic kidney cell line HEK-293T
Sequence (P47869 29-451): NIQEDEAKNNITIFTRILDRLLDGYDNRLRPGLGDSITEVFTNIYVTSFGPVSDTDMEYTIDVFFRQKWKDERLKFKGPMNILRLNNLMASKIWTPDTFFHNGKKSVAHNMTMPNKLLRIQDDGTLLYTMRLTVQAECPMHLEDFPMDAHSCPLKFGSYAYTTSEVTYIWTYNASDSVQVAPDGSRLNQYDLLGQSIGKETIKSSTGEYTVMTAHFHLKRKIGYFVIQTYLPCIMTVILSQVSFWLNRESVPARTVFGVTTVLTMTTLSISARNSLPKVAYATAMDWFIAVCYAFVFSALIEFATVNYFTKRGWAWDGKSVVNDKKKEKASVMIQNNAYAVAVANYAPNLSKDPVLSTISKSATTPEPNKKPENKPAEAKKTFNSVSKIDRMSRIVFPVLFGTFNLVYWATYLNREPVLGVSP
Sequence (P28472 26-473 partner): as the sequence (P28472 26-473 partner) above
Sequence (P18507 40-475): as the sequence (P18507 40-475) above
Test: Electrophysiology in transfected cells (IonWorks Barracuda), PAM effect on current induced by 5 μM GABA
MEASURE NAME: EC50 (nM)
Write the answer as a number in nM, unit excluded.

Just so you know, measured EC50 for CCNC(=O)c1ncn2c1[C@@H](C)N=C(c1ccccc1F)c1cc(C3CC3)ccc1-2 [GL-III-68] came out at 1910

====

Molecular target: α5β3γ2 GABAA receptor (Homo sapiens, UniProt P18507+P31644)
Construct: Full-length cDNAs for GABAA receptor subtypes are transfected into the human embryonic kidney cell line HEK-293T
Sequence (P31644 32-462): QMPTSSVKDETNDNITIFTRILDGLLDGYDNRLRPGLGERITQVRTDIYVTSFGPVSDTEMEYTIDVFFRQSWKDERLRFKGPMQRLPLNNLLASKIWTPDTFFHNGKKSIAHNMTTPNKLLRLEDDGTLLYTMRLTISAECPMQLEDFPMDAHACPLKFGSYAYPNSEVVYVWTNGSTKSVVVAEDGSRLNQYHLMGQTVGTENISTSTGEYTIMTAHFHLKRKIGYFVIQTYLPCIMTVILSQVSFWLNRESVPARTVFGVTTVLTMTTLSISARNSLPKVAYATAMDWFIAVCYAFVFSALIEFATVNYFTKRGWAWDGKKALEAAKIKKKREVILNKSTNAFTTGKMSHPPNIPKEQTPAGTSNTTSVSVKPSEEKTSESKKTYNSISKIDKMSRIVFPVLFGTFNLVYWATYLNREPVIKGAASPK
Sequence (P28472 26-473 partner): as the sequence (P28472 26-473 partner) above
Sequence (P18507 40-475): as the sequence (P18507 40-475) above
Assay: Electrophysiology in transfected cells (IonWorks Barracuda), PAM effect on current induced by 5 μM GABA
Method: Procedure B: Full-length cDNAs for GABAA receptor subtypes are transfected into the human embryonic kidney cell line HEK-293T. All subtypes are rat clones except for α2, which is a human clone. Cells are patch-clamped at −50 mV in the whole-cell recording configuration. […] Currents are recorded with an Axon 200B patch clamp amplifier. Data is normalized data current expressed as a percentage of the response to GABA alone for each cell. […]
MEASURE NAME: EC50

// returns EC50 for CCNC(=O)c1ncn2c1[C@@H](C)N=C(c1ccccc1F)c1cc(C3CC3)ccc1-2 [GL-III-68] with α5β3γ2 GABAA receptor (Homo sapiens, UniProt P18507+P31644); value = < 30 nM
